The reported measurements were obtained from paper PMC9071996.

system: RPMI-8226 cells; assay: MTS cytotoxicity assay, RPMI-8226; type: cell-based; details: Homo sapiens, RPMI-8226, 72 h, read-out: IC50 (μM) RPMI-8226
Listed compounds paired with reported IC50

compound	testedSystem	IC50
Cc1cccc(-c2nc(N)nc3c2C2CCC3(C)C2(C)C)c1 (stereo not shown)	RPMI-8226 cells	> 50 µM
COc1ccccc1-c1nc(N)nc2c1C1CCC2(C)C1(C)C (stereo not shown)	RPMI-8226 cells	> 50 µM
CC12CCC(c3c(-c4ccccn4)nc(N)nc31)C2(C)C (stereo not shown)	RPMI-8226 cells	> 50 µM
CC12CCC(c3c(-c4ccccc4Br)nc(N)nc31)C2(C)C (stereo not shown)	RPMI-8226 cells	> 50 µM
CC12CCC(c3c(-c4ccccc4)nc(N)nc31)C2(C)C (stereo not shown)	RPMI-8226 cells	> 50 µM
CC12CCC(c3c(-c4cccc(O)c4)nc(N)nc31)C2(C)C (stereo not shown)	RPMI-8226 cells	> 50 µM
CC12CCC(c3c(-c4ccncc4)nc(N)nc31)C2(C)C (stereo not shown)	RPMI-8226 cells	> 50 µM
COc1cc([C@@H]2c3cc4c(cc3[C@@H](O[C@@H]3O[C@@H]5CO[C@@H](C)O[C@H]5[C@H](O)[C@H]3O)[C@H]3COC(=O)[C@H]23)OCO4)cc(OC)c1O [Etoposide, reference compound]	RPMI-8226 cells	1.92 µM
CC12CCC(c3c(-c4ccc(Cl)cc4)nc(N)nc31)C2(C)C (stereo not shown)	RPMI-8226 cells	8.64 µM
CC12CCC(c3c(-c4cccc(F)c4)nc(N)nc31)C2(C)C (stereo not shown)	RPMI-8226 cells	> 50 µM
CC12CCC(c3c(-c4ccccc4Cl)nc(N)nc31)C2(C)C (stereo not shown)	RPMI-8226 cells	11.4 µM
CC12CCC(c3c(-c4ccc([N+](=O)[O-])cc4)nc(N)nc31)C2(C)C (stereo not shown)	RPMI-8226 cells	9.58 µM
COc1cccc(-c2nc(N)nc3c2C2CCC3(C)C2(C)C)c1 (stereo not shown)	RPMI-8226 cells	> 50 µM
CC12CCC(c3c(-c4cccnc4)nc(N)nc31)C2(C)C (stereo not shown)	RPMI-8226 cells	> 50 µM
CC12CCC(c3c(-c4ccc(O)cc4)nc(N)nc31)C2(C)C (stereo not shown)	RPMI-8226 cells	> 50 µM
CC12CCC(c3c(-c4cccc(Br)c4)nc(N)nc31)C2(C)C (stereo not shown)	RPMI-8226 cells	> 50 µM
CC12CCC(c3c(-c4ccccc4F)nc(N)nc31)C2(C)C (stereo not shown)	RPMI-8226 cells	> 50 µM
Cc1ccc(-c2nc(N)nc3c2C2CCC3(C)C2(C)C)cc1 (stereo not shown)	RPMI-8226 cells	13.9 µM
Cc1ccccc1-c1nc(N)nc2c1C1CCC2(C)C1(C)C (stereo not shown)	RPMI-8226 cells	> 50 µM
COc1ccc(-c2nc(N)nc3c2C2CCC3(C)C2(C)C)cc1 (stereo not shown)	RPMI-8226 cells	> 50 µM
CN(C)c1ccc(-c2nc(N)nc3c2C2CCC3(C)C2(C)C)cc1 (stereo not shown)	RPMI-8226 cells	> 50 µM
CC12CCC(c3c(-c4ccc(Br)cc4)nc(N)nc31)C2(C)C (stereo not shown)	RPMI-8226 cells	18.9 µM
CC12CCC(c3c(-c4ccccc4O)nc(N)nc31)C2(C)C (stereo not shown)	RPMI-8226 cells	> 50 µM
CC12CCC(c3c(-c4ccc(F)cc4)nc(N)nc31)C2(C)C (stereo not shown)	RPMI-8226 cells	9.3 µM
CC12CCC(c3c(-c4cccc(Cl)c4)nc(N)nc31)C2(C)C (stereo not shown)	RPMI-8226 cells	10.4 µM
